System: NCI-H522 lung
protocol: NCI-60 one-dose screen, 48 h
test-settings: 10 µM unless noted
This is part of a sample that, as a whole, favours compounds with a hit. Of some 83,000 tested, about 20% had one in any assay. Activity calls are given as the source filed them. How the source made its calls: active means growth percent below 10; inactive means the rest.
Reply using exactly one outcome from YES (active), NO (inactive)

Query :: Can you look up the reported call for CCC1CCc2nc3sc(C(=O)Nc4cccc(F)c4)c(N)c3cc2C1 (stereo not drawn) for me?
Result :: NO

Query :: Can you look up the reported call for O=C(Nc1ccccc1)C(CCCCN1C(=O)c2ccccc2C1=O)N1C(=O)c2ccccc2C1=O (stereo not drawn) for me?
Result :: NO

Query :: Can you look up the reported call for O=C(CCCCCCc1nc2ccc(Br)cc2[nH]1)NO for me?
Result :: YES

----------
Test system: NCI-H322M lung
protocol: NCI-60 one-dose screen, 48 h (100 = growth as untreated, 0 = no growth, -100 = all killed)
test-settings: 10 µM unless noted
The panel holds about 83,000 compounds, 20% with a hit somewhere; the sample as a whole holds those more often.
Note to self: growth under 70% means Satisfied, ties and anything higher get Not satisfied.

molecule: COc1ccc(Sc2[nH]c(C=O)c3ccccc23)cc1
group: Satisfied
--
molecule: C/C(=N\OC(=O)Nc1cccc(Cl)c1)c1ccccc1
group: Not satisfied
--
molecule: Cc1cc(C)c(C#N)c(SCC(=O)c2sc3c(C#N)c(C)cc(C)[n+]3c2[O-])n1
group: Satisfied

Query :: In plain terms, does COC1CC(N)C2OC(c3ccccc3)OCC2O1 (stereo unspecified) come in under 70% for growth?
Result :: Not satisfied

----------
System: PC-3 prostate
protocol: NCI-60 one-dose screen, 48 h
test-settings: 10 µM unless noted
Compounds without any hit were thinned out: in the full panel of roughly 83,000, 20% have a hit. Calls of active or inactive are those of the source. The calls were made as follows: active = growth percent below 10; inactive = the rest.
Reply using exactly one outcome from TRUE (active), FALSE (inactive)

Worked examples follow.
compound: Nc1ncnc2c1N=C(c1ccc(F)cc1)CC(c1sc(Cl)nc1Cl)N2 (configuration not stated)
group: FALSE
//
compound: COc1ccc(/C=C2\Cc3c(Br)cccc3C2=O)c(OC)c1
group: FALSE
//
compound: CCOc1cccc(/C=N/NC(=O)c2ccc(Nc3ccnc(C(F)(F)F)c3)cc2)c1O
group: FALSE

Query :: Can you look up the reported call for COc1ccccc1NC(=O)OCC12COCN1COC2 for me?
Result :: FALSE

Query :: Can you look up the reported call for O=c1[nH]c2ccccc2n2cc3cccnc3c12 for me?
Result :: FALSE

Query :: Can you look up the reported call for COc1ccc(C(=O)c2c(N)nc3n2CCCC3)cc1OC for me?
Result :: FALSE

Query :: Can you look up the reported call for COCCn1c(Nc2ccc(C(=O)NO)cc2)nc2ccccc21 for me?
Result :: FALSE

Query :: Can you look up the reported call for COc1ccc(C2C3=C(COC3=O)N(CCO)c3cc(OC)c(OC)cc32)cc1 (configuration not stated) for me?
Result :: FALSE

Query :: Can you look up the reported call for O=C(CCc1nc2sc3c(c2c(=O)[nH]1)CCC3)NCc1cn(-c2ccccc2)nc1-c1ccccc1 for me?
Result :: FALSE

Query :: Can you look up the reported call for FC(F)(F)C1=NNC(c2ccc3ccccc3c2)=NN1 for me?
Result :: FALSE
